Target: T1, human IL-17A (construct not stated) (human, UniProt Q16552 24-155, limits assumed)
T1 construct: also called huIL-17A; human IL-17A biotin
T1 sequence: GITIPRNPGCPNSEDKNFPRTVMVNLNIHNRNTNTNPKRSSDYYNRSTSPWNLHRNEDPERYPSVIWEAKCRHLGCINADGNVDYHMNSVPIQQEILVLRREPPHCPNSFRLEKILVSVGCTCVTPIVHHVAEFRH
Assay: ELISA on coated huIL-17A, crude Fab extract, overnight with 200 nM XAB1 Fab as competitor
# Competition ELISA (normalized to XAB1 Fab) values compiled below
RECORDED ENDPOINT: Competition ELISA (normalized to XAB1 Fab)

BINDER | RESULT
MB468 (Fab, V domains shown, heavy chain C-terminal Flag tag; with N56Q formatted to IgG as XAB3) VH: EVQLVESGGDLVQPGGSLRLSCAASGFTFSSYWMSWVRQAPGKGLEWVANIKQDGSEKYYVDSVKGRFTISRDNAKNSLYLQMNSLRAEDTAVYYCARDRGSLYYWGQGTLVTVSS VL: AIQLTQSPSSLSASVGDRVTITCRPSQGIYWELAWYQQKPGKAPKLLIYDASSLENGVPSRFSGSGSGTDFTLTISSLQPEDFATYYCQQFNSYPLTFGGGTKVEIK | 60 ratio to XAB1 Fab
MB456 (Fab, V domains shown, heavy chain C-terminal Flag tag) VH: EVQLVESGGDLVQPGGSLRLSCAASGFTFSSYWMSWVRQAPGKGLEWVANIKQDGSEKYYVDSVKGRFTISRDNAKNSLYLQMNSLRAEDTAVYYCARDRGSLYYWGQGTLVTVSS VL: AIQLTQSPSSLSASVGDRVTITCRPSQGILWHLAWYQQKPGKAPKLLIYDASSLENGVPSRFSGSGSGTDFTLTISSLQPEDFATYYCQQFNSYPLTFGGGTKVEIK | 46.7 ratio to XAB1 Fab
MB486 (Fab, V domains shown, heavy chain C-terminal Flag tag) VH: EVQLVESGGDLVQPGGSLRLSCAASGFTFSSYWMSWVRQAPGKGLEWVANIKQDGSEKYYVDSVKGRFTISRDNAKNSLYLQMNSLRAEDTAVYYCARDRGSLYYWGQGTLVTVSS VL: AIQLTQSPSSLSASVGDRVTITCRPSQGIWWMLAWYQQKPGKAPKLLIYDASSLENGVPSRFSGSGSGTDFTLTISSLQPEDFATYYCQQFNSYPLTFGGGTKVEIK | 64.9 ratio to XAB1 Fab
MB453 (Fab, V domains shown, heavy chain C-terminal Flag tag) VH: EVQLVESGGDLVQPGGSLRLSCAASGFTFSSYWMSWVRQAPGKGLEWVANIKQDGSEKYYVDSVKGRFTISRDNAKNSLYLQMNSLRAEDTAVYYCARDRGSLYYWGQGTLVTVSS VL: AIQLTQSPSSLSASVGDRVTITCRPSQGIVFWLAWYQQKPGKAPKLLIYDASSLENGVPSRFSGSGSGTDFTLTISSLQPEDFATYYCQQFNSYPLTFGGGTKVEIK | 46.4 ratio to XAB1 Fab
MB438 (Fab, V domains shown, 32 stays A); heavy chain C-terminal Flag tag) VH: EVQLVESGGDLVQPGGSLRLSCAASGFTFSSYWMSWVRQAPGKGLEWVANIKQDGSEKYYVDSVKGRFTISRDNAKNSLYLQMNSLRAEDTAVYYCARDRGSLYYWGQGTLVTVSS VL: AIQLTQSPSSLSASVGDRVTITCRPSQGIPYALAWYQQKPGKAPKLLIYDASSLENGVPSRFSGSGSGTDFTLTISSLQPEDFATYYCQQFNSYPLTFGGGTKVEIK | 41.1 ratio to XAB1 Fab
MB448 (Fab, V domains shown, heavy chain C-terminal Flag tag) VH: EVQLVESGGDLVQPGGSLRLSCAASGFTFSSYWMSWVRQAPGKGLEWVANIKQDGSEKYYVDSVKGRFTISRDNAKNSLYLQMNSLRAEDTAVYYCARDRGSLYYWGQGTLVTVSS VL: AIQLTQSPSSLSASVGDRVTITCRPSQGIVWMLAWYQQKPGKAPKLLIYDASSLENGVPSRFSGSGSGTDFTLTISSLQPEDFATYYCQQFNSYPLTFGGGTKVEIK | 51.5 ratio to XAB1 Fab
